Test system: Human rhinovirus sp.
Test: Antiviral activity against rhinoviral 8 serotype in a plaque inhibition assay using monolayers of M-HeLa cells
Type: functional, organism-based
ENDPOINT NAME: IC50 (µM)
Write the value in µM as a bare number.

Worked examples follow.
| CHEMICAL SMILES | IC50 / µM |
| --- | --- |
| CN(C)c1nc(C(F)(F)F)nc2c1ncn2Cc1ccccc1Cl | 7.9 |
| CN(C)c1nc(C(F)(F)F)nc2c1ncn2Cc1ccc(Cl)c(NC=O)c1 | 6.7 |
| CSc1ccc(Cn2cnc3c(N(C)C)nc(C(F)(F)F)nc32)cc1 | 7.2 |
| CN(C)c1nc(C(F)(F)F)nc2c1ncn2Cc1ccc(F)cc1 | 8 |

Query: Please give the measured IC50 for this compound: "Cc1cc(Cl)ccc1Cn1cnc2c(N(C)C)nc(C(F)(F)F)nc21"
Reply: 9.5

Query: Query "CN(C)c1nc(C(F)(F)F)nc2c1ncn2Cc1ccc(Cl)c(N)c1" next
Reply: 6.2

Query: Also, "CN(C)c1nc(C(F)(F)F)nc2c1ncn2Cc1ccccc1" please.
Reply: 8

Query: Now try "CN(C)c1nc(C(F)(F)F)nc2c1ncn2Cc1ccc(Cl)cc1" .
Reply: 5.7

Query: Follow-up entry: "CN(C)c1nc(C(F)(F)F)nc2c1ncn2Cc1ccc(Cl)c(Cl)c1"
Reply: 11

Query: How about "CN(C)c1nc(C(F)(F)F)nc2c1ncn2Cc1ccc(Cl)cc1Cl" ?
Reply: 8.5

Query: Repeat for the following compound: "CN(C)c1nc(C(F)(F)F)nc2c1ncn2Cc1ccc([N+](=O)[O-])cc1"
Reply: 8.1

Query: And for "CN(C)c1nc(C(F)(F)F)nc2c1ncn2Cc1ccc(Br)cc1" ?
Reply: 8.3

Query: Note, next up: "Cc1ccc(Cn2cnc3c(N(C)C)nc(C(F)(F)F)nc32)cc1C"
Reply: 5.1

Query: And what about the compound "CC(C)Oc1ccc(Cn2cnc3c(N(C)C)nc(C(F)(F)F)nc32)cc1" ?
Reply: 10
